Hey, just so you know, these numbers are from ChEMBL document CHEMBL4699489.

Quick reference for Emax among some molecules
- tested.system: Mu-type opioid receptor (Homo sapiens, UniProt P35372)
- Sequence (P35372 whole entry): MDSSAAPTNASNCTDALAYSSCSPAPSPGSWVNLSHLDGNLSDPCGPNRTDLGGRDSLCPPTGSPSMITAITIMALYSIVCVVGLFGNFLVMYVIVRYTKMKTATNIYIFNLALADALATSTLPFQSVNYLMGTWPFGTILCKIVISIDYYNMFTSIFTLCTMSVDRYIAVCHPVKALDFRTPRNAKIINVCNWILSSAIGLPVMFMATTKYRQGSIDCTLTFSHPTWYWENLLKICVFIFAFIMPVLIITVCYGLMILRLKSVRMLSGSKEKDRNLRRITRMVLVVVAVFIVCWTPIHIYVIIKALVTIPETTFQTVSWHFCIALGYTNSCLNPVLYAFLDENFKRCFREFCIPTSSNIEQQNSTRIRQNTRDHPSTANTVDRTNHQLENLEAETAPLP
- assay.procedure: Agonist activity at human MOR expressed in CHO cell membranes assessed as stimulation of [35S]-GTPgammaS binding incubated for 1 hr by liquid scintillation counting assay relative to DAMGO
- Format: functional
- study.conditions: filed as agonist, time 60.0 min
Numbered stars: 1 amine (or outer) side, 2 acyl side, 3 side chain; on linkers, the order of the positions; unused ones are H or OH. Square brackets hold non-standard residues; d marks the D form. Peptide text beside a SMILES is read from it. X1 = O=C1[C@@H](N[*:1])Cc2ccccc2CN1CCC(=O)[*:2]; X2 = O=C([C@@H]1Cc2cc(O)ccc2CN1[*:1])[*:2]; Dmt = Cc1cc(O)cc(C)c1C[C@H](N)C(=O)O; mTyr = N[C@@H](Cc1cccc(O)c1)C(=O)O; Tle = CC(C)(C)[C@H](N)C(=O)O

molecule	Emax (%)
Cc1cc(O)cc(C)c1C[C@H](N)C(=O)N[C@H](CCCNC(=N)N)C(=O)N[C@H]1Cc2ccccc2CN(CCC(=O)N[C@@H](CCCNC(=N)N)C(=O)N[C@@H](CCCNC(=N)N)C(=O)N2CCC[C@H]2C(=O)N2Cc3ccc(O)cc3C[C@H]2C(=O)N[C@H](C(=O)N[C@@H](CC(C)C)C(=O)O)C(C)(C)C)C1=O (H-[Dmt][dR][X1]RRP[X2][Tle]L-OH)	98
Cc1cc(O)cc(C)c1C[C@H](NC(=O)[C@@H]1CCCN1C(=O)[C@H](CCCCN)NC(=O)[C@H](CCCCN)NC(=O)CCN1Cc2ccccc2C[C@H](NC(=O)[C@@H](CCCNC(=N)N)NC(=O)[C@@H](N)Cc2c(C)cc(O)cc2C)C1=O)C(=O)N[C@H](C(=O)N[C@@H](CC(C)C)C(=O)O)C(C)(C)C (H-[Dmt][dR][X1]KKP[Dmt][Tle]L-OH)	95
Cc1cc(O)cc(C)c1C[C@H](N)C(=O)N[C@H](CCCNC(=N)N)C(=O)N[C@H]1Cc2ccccc2CN(CCC(=O)N[C@@H](CCCNC(=N)N)C(=O)N[C@@H](CCCNC(=N)N)C(=O)N2CCC[C@H]2C(=O)N[C@@H](Cc2cccc(O)c2)C(=O)N[C@H](C(=O)N[C@@H](CC(C)C)C(=O)O)C(C)(C)C)C1=O (H-[Dmt][dR][X1]RRP[mTyr][Tle]L-OH)	95
